Biological target: RAC-alpha serine/threonine-protein kinase (Homo sapiens, UniProt P31749)
Sequence (P31749 whole entry): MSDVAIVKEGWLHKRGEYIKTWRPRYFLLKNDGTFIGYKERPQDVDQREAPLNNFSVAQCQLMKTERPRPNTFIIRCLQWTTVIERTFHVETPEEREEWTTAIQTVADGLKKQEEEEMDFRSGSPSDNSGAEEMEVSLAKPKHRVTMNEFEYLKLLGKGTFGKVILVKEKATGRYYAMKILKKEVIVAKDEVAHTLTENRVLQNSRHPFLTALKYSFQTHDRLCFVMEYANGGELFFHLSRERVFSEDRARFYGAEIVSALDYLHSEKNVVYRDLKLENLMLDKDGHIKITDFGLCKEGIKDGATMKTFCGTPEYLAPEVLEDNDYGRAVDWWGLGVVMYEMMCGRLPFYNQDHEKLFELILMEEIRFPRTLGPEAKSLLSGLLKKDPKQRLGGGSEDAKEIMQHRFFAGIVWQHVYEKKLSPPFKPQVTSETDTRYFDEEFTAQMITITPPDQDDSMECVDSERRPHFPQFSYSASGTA
Assay: Inhibition of Akt1
The following molecules are shown together with reported pIC50 values.
FYI, pIC50 means -log10 of a concentration in mol per litre.

Below, each entry is followed by its recorded pIC50 result.
CSc1ncc2cc(-c3ccccc3)c(-c3ccc(CN4CCC(c5nnc(N)s5)CC4)cc3)nc2n1 8.07
CSc1ncc2cc(-c3ccccc3)c(-c3ccc(CN4CCC(C(=O)Nc5ccncc5)CC4)cc3)nc2n1 8.01
CSc1ncc2cc(-c3ccccc3)c(-c3ccc(CNCCC(N)=O)cc3)nc2n1 6.65

Query :: // fetch RAC-alpha serine/threonine-protein kinase (Homo sapiens, UniProt P31749) pIC50 for CSc1ncc2cc(-c3ccccc3)c(-c3ccc(CN(C)CCc4cn[nH]c4)cc3)nc2n1
Result :: 5.82

Query :: Query for RAC-alpha serine/threonine-protein kinase (Homo sapiens, UniProt P31749): what pIC50 does the record show for N#Cc1ncc2cc(-c3ccccc3)c(-c3ccc(CN4CCC(c5nnc(-c6ccccn6)[nH]5)CC4)cc3)nc2n1 ?
Result :: 7.62

* * *

Molecular target: RAC-beta serine/threonine-protein kinase (Homo sapiens, UniProt P31751)
Sequence (P31751 whole entry): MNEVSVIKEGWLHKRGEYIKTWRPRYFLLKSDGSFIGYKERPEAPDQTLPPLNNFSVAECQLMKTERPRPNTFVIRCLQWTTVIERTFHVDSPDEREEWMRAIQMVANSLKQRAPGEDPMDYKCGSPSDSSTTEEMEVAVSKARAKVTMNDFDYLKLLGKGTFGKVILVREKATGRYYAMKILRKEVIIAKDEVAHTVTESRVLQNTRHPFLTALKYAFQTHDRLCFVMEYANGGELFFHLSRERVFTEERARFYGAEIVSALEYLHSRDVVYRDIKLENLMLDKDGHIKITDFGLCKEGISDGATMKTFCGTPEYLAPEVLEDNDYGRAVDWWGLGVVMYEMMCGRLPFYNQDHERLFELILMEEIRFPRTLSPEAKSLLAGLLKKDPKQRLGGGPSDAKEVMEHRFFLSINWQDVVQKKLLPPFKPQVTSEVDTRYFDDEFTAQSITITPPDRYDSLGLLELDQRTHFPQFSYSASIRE
Assay: Inhibition of Akt2
pIC50: −log10 of the molar value.
Outcome label depends on pIC50 relative to 6: at/above gives criterion met, below gives criterion not met.

CSc1ncc2cc(-c3ccccc3)c(-c3ccc(CNCCc4nc[nH]n4)cc3)nc2n1 criterion not met

Query :: In plain terms: is recorded pIC50 at least 6 for CSc1ncc2cc(-c3ccccc3)c(-c3ccc(CN4CCC(c5cc(-c6ccncc6)[nH]n5)CC4)cc3)nc2n1 ?
Result :: criterion met

Query :: Quick check, pIC50 >= 6? Nc1ncnc2nc(-c3ccc(CN4CCC(n5ncc6c(N)ncnc65)CC4)cc3)c(-c3ccccc3)cc12
Result :: criterion met

Query :: Textbook exercise: given the entry CCNC(=O)NC1CCN(Cc2ccc(-c3nc4nc(SC)ncc4cc3-c3ccccc3)cc2)CC1 , state whether its pIC50 is greater than or equal to 6.
Result :: criterion not met

Query :: Could you verify whether the entry CSc1ncc2cc(-c3ccccc3)c(-c3ccc(CN4CCC(c5nnc(N)s5)CC4)cc3)nc2n1 shows pIC50 of no less than 6?
Result :: criterion met

Query :: Could you please find out whether CSc1ncc2cc(-c3ccccc3)c(-c3ccc(CNCCc4nnc(C)[nH]4)cc3)nc2n1 has pIC50 that meets 6 or exceeds it?
Result :: criterion not met

Query :: Please check the record CSc1ncc2cc(-c3ccccc3)c(-c3ccc(CN(C)CCc4cn[nH]c4)cc3)nc2n1 and state if its pIC50 is at or above 6.
Result :: criterion not met

Query :: Threshold query (pIC50 >= 6) on CSc1ncc2cc(-c3ccccc3)c(-c3ccc(CNCCc4nnc(N)s4)cc3)nc2n1
Result :: criterion met

* * *

Biological target: RAC-beta serine/threonine-protein kinase (Homo sapiens)
Assay: Inhibition of Akt2
observable: IC50
Value and unit, in that order.

Example entries begin here.
Nc1ncnc2nc(-c3ccc(CN4CCC(c5nc6ccc(F)cc6[nH]5)CC4)cc3)c(-c3ccccc3)cc12 0.239 µM
CSc1ncc2cc(-c3ccccc3)c(-c3ccc(CNCCC(N)=O)cc3)nc2n1 1.3 µM

Query :: Endpoint output: IC50 of COc1ncc2cc(-c3ccccc3)c(-c3ccc(CN4CCC(c5nnc(-c6ccccn6)[nH]5)CC4)cc3)nc2n1 . Value?
Result :: 0.107 µM

Query :: Query: IC50; subject: CSc1ncc2cc(-c3ccccc3)c(-c3ccc(CN4CCC(n5ncc6c(N)ncnc65)CC4)cc3)nc2n1
Result :: 0.044 µM

Query :: Given the entry CSc1ncc2cc(-c3ccccc3)c(-c3ccc(CN4CCC(NC(=O)CNC(C)=O)CC4)cc3)nc2n1 , report its measured IC50.
Result :: 5.13 µM

Query :: Fill in the blank: the reported IC50 of CSc1ncc2cc(-c3ccccc3)c(-c3ccc(CN4CCC(C(=O)NCCC(N)=O)CC4)cc3)nc2n1 is ____.
Result :: 2.11 µM

Query :: Please look up its IC50: CSc1ncc2cc(-c3ccccc3)c(-c3ccc(CNCCCn4ccnc4)cc3)nc2n1
Result :: 1.51 µM

Query :: # get_value(readout='IC50', item= CSc1ncc2cc(-c3ccccc3)c(-c3ccc(CNCCc4cccnc4)cc3)nc2n1 )
Result :: 1.16 µM

Query :: Requested field: IC50. Item: CSc1ncc2cc(-c3ccccc3)c(-c3ccc(CN4CCC(c5nc(-c6cccnc6)no5)CC4)cc3)nc2n1
Result :: 1.3 µM
